# target.of.assay: MERTK (UniProt Q12866)
# Sequence (Q12866 whole entry, looked up): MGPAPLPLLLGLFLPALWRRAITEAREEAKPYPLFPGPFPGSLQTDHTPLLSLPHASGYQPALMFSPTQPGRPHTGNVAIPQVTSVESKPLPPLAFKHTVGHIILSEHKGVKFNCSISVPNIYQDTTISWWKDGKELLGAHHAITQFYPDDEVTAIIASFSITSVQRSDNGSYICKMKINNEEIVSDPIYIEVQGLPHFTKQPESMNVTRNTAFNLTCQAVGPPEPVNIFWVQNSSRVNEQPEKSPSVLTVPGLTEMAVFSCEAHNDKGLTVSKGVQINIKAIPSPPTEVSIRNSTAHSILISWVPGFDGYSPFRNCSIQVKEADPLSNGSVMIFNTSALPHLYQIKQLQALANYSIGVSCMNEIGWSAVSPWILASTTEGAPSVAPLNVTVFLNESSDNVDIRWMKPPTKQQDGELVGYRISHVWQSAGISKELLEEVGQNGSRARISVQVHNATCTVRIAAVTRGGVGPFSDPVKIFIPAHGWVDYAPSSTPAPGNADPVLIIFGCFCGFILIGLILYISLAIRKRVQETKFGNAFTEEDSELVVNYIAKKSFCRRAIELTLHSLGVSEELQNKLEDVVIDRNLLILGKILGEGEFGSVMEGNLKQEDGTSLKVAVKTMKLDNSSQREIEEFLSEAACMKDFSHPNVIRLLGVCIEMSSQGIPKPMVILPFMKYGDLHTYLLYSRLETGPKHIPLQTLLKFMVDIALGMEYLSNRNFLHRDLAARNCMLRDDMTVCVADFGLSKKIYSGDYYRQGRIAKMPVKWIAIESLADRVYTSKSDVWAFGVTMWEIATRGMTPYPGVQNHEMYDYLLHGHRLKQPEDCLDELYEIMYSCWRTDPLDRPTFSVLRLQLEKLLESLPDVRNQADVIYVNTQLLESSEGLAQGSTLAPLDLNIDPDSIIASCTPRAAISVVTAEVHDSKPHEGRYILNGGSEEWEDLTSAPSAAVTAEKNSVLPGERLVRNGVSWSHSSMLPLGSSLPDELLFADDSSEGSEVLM
# assay.info: phosphorylation enrichment, bacterial display (enrichment ratio); higher = better substrate or ligand; peptides without Tyr show the background;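 further: 11-residue human phosphosite peptides and single-mutation variants displayed on the E. coli surface, counted by deep sequencing, each peptide's frequency after selection divided by its frequency in the unselected input library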;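 further: frequency after pTyr selection over input frequency; kinase dosed for 20-30% of maximal phosphorylation in three min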
Parameter phosphorylation enrichment: see the listing below.

biopolymer.sequence	metric.name	reported
KTGDFYDLFGG [PTPN11_Y63_N58K_YF]	phosphorylation enrichment	2.74
HDEPTYARSSK [PEAK1_Y616]	phosphorylation enrichment	0.679
SVVVPYEPHEV [TP53_Y220_P223H]	phosphorylation enrichment	0.493
LIQRNYKLTAQ [ALPK2_Y1975_A1978T]	phosphorylation enrichment	0.567
RQSTLYSFFPK [MSH6_Y8]	phosphorylation enrichment	22.1

Exam item: Give its phosphorylation enrichment value. Item: TMETKYDNISR [SETDB2_Y477_V473M]
Marked response: 0.469

====

# target.of.assay: Jak2 (UniProt O60674)
# Sequence (O60674 whole entry, looked up): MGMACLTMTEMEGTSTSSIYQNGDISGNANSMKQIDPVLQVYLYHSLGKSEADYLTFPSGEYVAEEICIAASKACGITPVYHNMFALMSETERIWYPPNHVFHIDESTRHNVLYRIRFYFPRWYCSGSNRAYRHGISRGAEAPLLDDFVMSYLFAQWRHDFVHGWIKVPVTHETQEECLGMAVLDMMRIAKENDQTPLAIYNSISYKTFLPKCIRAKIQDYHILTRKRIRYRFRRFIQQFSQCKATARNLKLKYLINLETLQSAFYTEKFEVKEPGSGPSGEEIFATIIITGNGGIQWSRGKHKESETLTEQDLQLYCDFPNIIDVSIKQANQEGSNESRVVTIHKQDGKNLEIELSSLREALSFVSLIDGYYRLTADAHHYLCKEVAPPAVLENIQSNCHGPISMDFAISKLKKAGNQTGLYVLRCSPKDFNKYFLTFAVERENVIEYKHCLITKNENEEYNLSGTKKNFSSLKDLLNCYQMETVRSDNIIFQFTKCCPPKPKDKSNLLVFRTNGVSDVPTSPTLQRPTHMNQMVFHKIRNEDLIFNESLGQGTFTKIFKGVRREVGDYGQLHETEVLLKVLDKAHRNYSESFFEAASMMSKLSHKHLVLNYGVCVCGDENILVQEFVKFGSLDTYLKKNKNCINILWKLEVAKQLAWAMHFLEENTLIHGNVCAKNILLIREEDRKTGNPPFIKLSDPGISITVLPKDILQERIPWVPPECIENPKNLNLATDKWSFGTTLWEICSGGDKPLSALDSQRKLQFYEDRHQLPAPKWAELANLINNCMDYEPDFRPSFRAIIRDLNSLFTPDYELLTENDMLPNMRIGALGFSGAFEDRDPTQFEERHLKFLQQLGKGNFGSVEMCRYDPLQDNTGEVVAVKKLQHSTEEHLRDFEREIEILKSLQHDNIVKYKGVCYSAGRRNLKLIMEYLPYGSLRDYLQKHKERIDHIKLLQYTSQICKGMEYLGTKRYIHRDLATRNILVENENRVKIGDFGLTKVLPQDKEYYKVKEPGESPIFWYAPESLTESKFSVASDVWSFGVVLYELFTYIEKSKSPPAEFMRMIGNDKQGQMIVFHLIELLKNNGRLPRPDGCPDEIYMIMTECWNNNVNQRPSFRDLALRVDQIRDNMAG
# assay.info: phosphorylation enrichment, bacterial display (enrichment ratio); higher = better substrate or ligand; peptides without Tyr show the background
metric.name: phosphorylation enrichment
Output spec: single numeric token, no unit.

biopolymer.sequence	metric.name	reported
PDDPNYSLVDD [PSTPIP2_Y323]	phosphorylation enrichment	1.4

Exam item: What value of phosphorylation enrichment has been recorded for this entry: LARDMHDKEYY [MET_Y1230_Y1230H]
Marked response: 0.628

Exam item: I would be grateful if you could share the reported phosphorylation enrichment for EKSREYHRLYE [PIK3R1_Y463_D464H] .
Marked response: 0.637

Exam item: Query (sequence): QDRDLYPCPGT [RLF_Y671] ; field requested: phosphorylation enrichment
Marked response: 1.1

Exam item: Using the record for TAALWYIYSHT [ENG_Y612] , report its phosphorylation enrichment.
Marked response: 0.984

Exam item: Form field: reported phosphorylation enrichment of LVMFTYAIFGM [SCN1A_Y1684_I1683T]
Marked response: 2.23

Exam item: Request the reported phosphorylation enrichment associated with LDFPEYNGVDR [CASQ1_Y43_D44N]
Marked response: 3.51

Exam item: I'd like to know its phosphorylation enrichment. The sequence in question is IRRSSYEDSSL [HNF4A_Y144_T139I]
Marked response: 0.65

Exam item: Look up phosphorylation enrichment for this sequence: KATKGYLDDPT [G6PD_Y322_E317K]
Marked response: 0.755

====

# target.of.assay: FGFR1 (UniProt P11362)
# Sequence (P11362 whole entry, looked up): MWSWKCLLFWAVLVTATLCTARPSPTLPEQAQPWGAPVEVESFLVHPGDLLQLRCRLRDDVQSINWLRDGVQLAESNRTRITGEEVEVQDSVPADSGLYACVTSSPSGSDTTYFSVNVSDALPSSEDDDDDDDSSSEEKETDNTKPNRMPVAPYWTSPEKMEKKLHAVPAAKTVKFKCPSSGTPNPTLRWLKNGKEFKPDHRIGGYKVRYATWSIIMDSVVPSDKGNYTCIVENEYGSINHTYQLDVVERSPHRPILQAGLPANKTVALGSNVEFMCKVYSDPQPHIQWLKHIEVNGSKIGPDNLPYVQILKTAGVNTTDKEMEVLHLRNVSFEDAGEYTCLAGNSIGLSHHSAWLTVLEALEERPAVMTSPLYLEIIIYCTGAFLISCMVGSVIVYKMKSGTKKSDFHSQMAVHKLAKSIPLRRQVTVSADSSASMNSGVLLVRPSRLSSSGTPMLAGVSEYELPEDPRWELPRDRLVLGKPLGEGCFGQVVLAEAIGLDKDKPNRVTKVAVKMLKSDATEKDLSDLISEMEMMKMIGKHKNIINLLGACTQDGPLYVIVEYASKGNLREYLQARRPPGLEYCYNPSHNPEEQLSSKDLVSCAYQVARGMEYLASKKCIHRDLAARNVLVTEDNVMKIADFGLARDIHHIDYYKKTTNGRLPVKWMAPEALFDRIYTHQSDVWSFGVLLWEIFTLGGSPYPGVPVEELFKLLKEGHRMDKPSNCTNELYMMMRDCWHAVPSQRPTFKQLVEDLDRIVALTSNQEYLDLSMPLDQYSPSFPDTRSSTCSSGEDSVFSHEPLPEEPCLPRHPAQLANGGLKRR
# assay.info: phosphorylation enrichment, bacterial display (enrichment ratio); higher = better substrate or ligand; peptides without Tyr show the background
Label scheme for phosphorylation enrichment: lower than 0.7 is no, 0.7 and above is yes.

Example entries begin here.
biopolymer.sequence	target.of.assay	class.assignment
KDHLDYKFQPR [SOX9_Y172_P170L_YF]	FGFR1 (UniProt P11362)	no
GSTLSYGRDGR [MATR3_Y158_P154S]	FGFR1 (UniProt P11362)	no
SAPPSYEETVA [LITAF_Y23]	FGFR1 (UniProt P11362)	no
HNLDFYKKTTN [FGFR3_Y648_YF]	FGFR1 (UniProt P11362)	yes
EKAEVYRSENE [RIOK2_Y348_G349R]	FGFR1 (UniProt P11362)	no

Exam item: For this sequence, is measured phosphorylation enrichment 0.7 or higher? REVPVYTYSEP [FAM120B_Y368_D370Y]
Marked response: yes

Exam item: I'd appreciate it if you could say whether PEIIAYQPYGK [PRKCG_Y529] has phosphorylation enrichment at least equal to 0.7.
Marked response: yes

Exam item: Does phosphorylation enrichment meet or surpass 0.7 for SVTCTYSPTLN [TP53_Y126_A129T] ?
Marked response: no

Exam item: Could you verify whether the entry AHAGEYGEEAL [HBA1_Y25_A27E] shows phosphorylation enrichment of no less than 0.7?
Marked response: no

Exam item: Hi team, for PLYRKYWPNHI [GREB1L_Y1560] , is the recorded phosphorylation enrichment at or above 0.7?
Marked response: yes

Exam item: Decide: phosphorylation enrichment of SVTCTNSPALN [TP53_Y126_Y126N] >= 0.7?
Marked response: no

Exam item: Threshold query (phosphorylation enrichment >= 0.7) on CENCHYPIVPL [LCK_Y25]
Marked response: no

Exam item: # bool: phosphorylation enrichment of QDRDLYPCPGT [RLF_Y671] >= 0.7
Marked response: no

Taken from the supplement of paper PMC10065799.
